# IC50 listing for each entry below
ASSAYED TARGET: CDK1/CyclinA2 (Homo sapiens (Human))
Sequence (P06493 whole entry): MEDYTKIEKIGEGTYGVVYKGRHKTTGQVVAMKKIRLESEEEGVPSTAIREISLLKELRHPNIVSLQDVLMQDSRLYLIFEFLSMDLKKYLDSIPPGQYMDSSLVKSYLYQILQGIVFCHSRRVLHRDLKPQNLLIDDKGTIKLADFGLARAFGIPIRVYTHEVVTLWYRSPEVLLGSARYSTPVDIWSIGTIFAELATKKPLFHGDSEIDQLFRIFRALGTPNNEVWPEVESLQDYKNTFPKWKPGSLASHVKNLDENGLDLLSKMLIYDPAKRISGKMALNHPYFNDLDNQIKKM
Sequence (P20248 whole entry partner): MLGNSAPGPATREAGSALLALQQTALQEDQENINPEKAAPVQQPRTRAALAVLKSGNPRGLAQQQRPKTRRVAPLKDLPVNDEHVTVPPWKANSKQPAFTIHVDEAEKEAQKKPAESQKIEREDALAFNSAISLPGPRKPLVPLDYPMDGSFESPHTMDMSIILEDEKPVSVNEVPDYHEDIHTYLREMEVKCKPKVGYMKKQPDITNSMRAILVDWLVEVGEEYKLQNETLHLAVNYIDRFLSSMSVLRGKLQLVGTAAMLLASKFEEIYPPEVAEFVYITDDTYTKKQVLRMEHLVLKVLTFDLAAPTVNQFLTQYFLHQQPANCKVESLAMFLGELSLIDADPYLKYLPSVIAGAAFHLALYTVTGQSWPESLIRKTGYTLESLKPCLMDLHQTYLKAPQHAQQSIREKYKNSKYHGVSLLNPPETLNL
MEASUREMENT NOTES: CDK kinase inhibitory activity, ADP-Glo Kinase Assay, CDK1/CyclinA2

What value of IC50 has been reported for the following compound? CCC1(C)C(C)=Nc2c(F)cc(-c3nc(Nc4ccc5c(n4)CCN(C(=O)CO)C5)ncc3F)cc21 (stereo not drawn) [Example 39]
38.5 nM

Requested read-out: IC50. Entry: CC1=Nc2c(F)cc(-c3nc(Nc4ccc(N5CCN(C)CC5)cn4)ncc3F)cc2C12CCCC2 [Example 20]
1440 nM

Look up IC50 for this compound: CC1=Nc2ccc(-c3nc(Nc4ccc(N5CCNCC5)cn4)ncc3F)cc2C12CCCC2 [Example 14]
234 nM

Look at this compound and give its reported IC50. CCN1CCN(Cc2ccc(Nc3ncc(F)c(-c4cc(F)c5c(c4)C(C)(CC)C(C)=N5)n3)nc2)CC1 (stereo not drawn) [Example 5]
439 nM

Which measured IC50 value corresponds to CCC1(C)C(C)=Nc2ccc(-c3nc(Nc4ccc(C5CCN(C)CC5)cn4)ncc3F)cc21 (stereo not drawn) [Example 35] ?
64 nM

Could you tell me which IC50 is on file for CCN1CCN(Cc2ccc(Nc3ncc(F)c(-c4cc(F)c5c(c4)C(CC)(CC)C(C)=N5)n3)nc2)CC1 [Example 10] ?
436 nM

Could you tell me which IC50 is on file for CC1=Nc2c(F)cc(-c3nc(Nc4ccc(C5CCN(C)CC5)cn4)ncc3F)cc2C12CCCC2 [Example 17] ?
2710 nM

Looking for the measured IC50 of CCC1(C)C(C)=Nc2c(F)cc(-c3nc(Nc4ccc(N5CCN(C)CC5)cn4)ncc3F)cc21 (stereo not drawn) [Example 18] , can you help?
190 nM

Consider the compound shown here: CC1=Nc2c(F)cc(-c3nc(Nc4ccc(N5CCN(CCO)CC5)cn4)ncc3F)cc2C12CCCC2 [Example 28] What is its recorded IC50?
328 nM

====

Below is a list of entries, each paired with its recorded AUC(0-t) value.
MEASUREMENT NOTES: Rat pharmacokinetic determination (LC/MS/MS of plasma)
Assay type: in vivo, SD rats
CONDITION: male, rat, plasma, po; rats, single intragastric administration, 5 mg/kg, Mean ± SD; read-out: Area under curve AUC0-t
Quick reminder: number only, in ng·h/mL, skip the unit.

# COMPOUND, READING
measured = [
    ("CC1=Nc2c(F)cc(-c3nc(Nc4ccc(C5CCN(C)CC5)cn4)ncc3F)cc2C12CCCC2", 2610),
]

In the following, a different compound is considered.
Consider the compound CCN1CCN(Cc2ccc(Nc3ncc(F)c(-c4cc(F)c5nc(C)n(C(C)C)c5c4)n3)nc2)CC1 [LY2835219, reference compound] and give its measured AUC(0-t).
3280

====

MEASUREMENT NOTES: Rat pharmacokinetic determination (LC/MS/MS of plasma)
Format: in vivo, SD rats
CONDITION: male, rat, plasma, po; rats, single intragastric administration, 5 mg/kg, Mean ± SD; read-out: Retention time MRT
RESULT TYPE: MRT
Field note: include the unit after the figure.

# query: MRT of entry `CC1=Nc2c(F)cc(-c3nc(Nc4ccc(C5CCN(C)CC5)cn4)ncc3F)cc2C12CCCC2`
10.2 h

====

ASSAYED TARGET: CDK6/CyclinD3 (Homo sapiens (Human), UniProt Q00534)
Sequence (Q00534 whole entry): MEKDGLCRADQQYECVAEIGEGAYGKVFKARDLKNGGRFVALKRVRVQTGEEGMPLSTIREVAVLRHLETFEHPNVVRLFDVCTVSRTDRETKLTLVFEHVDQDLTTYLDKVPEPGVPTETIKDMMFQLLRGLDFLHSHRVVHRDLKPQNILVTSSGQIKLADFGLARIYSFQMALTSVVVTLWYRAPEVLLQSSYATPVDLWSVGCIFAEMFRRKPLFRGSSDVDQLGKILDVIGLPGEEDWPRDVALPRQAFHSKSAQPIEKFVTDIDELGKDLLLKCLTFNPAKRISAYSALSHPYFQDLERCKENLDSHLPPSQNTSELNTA
Sequence (P30281 whole entry partner): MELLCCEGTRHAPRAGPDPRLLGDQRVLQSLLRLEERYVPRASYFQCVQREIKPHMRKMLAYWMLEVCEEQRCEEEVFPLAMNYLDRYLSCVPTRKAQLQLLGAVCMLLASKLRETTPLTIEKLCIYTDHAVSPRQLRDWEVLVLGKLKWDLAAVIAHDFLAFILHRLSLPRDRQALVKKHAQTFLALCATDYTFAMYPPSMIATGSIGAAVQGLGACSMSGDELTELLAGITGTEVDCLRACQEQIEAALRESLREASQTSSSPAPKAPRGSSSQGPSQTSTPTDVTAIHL
MEASUREMENT NOTES: CDK kinase inhibitory activity, ADP-Glo Kinase Assay, CDK6/CyclinD3
Recorded pIC50, one value per entry.
For clarity, pIC50 is expressed as the negative log10 of concentration in mol/L.

The examples below pair each entry with its known result.
# COMPOUND, READING
records = [
    ("CCN1CCC(c2ccc(Nc3ncc(F)c(-c4ccc5c(c4)C4(CCCC4)C(C)=N5)n3)nc2)CC1", 7.56),
    ("CC1=Nc2c(F)cc(-c3nc(Nc4ccc(N5CCN(C)CC5)cn4)ncc3F)cc2C12CCCC2", 7.06),
    ("CC1=Nc2c(F)cc(-c3nc(Nc4ccc(N5CCN(CC6CC6)CC5)cn4)ncc3F)cc2C12CCCC2", 7.12),
]

Param readout= pIC50; system= CDK6/CyclinD3 (Homo sapiens (Human), UniProt Q00534); entry= `CCN1CCN(Cc2ccc(Nc3ncc(F)c(-c4cc(F)c5c(c4)C(C)(C)C(C)=N5)n3)nc2)CC1` ; returns value.
6.80

Requested read-out pIC50, target or system CDK6/CyclinD3 (Homo sapiens (Human), UniProt Q00534), entry `CCN1CCN(c2ccc(Nc3ncc(F)c(-c4ccc5c(c4)C4(CCCC4)C(C)=N5)n3)nc2)CC1`
7.28

Lookup: pIC50 / CDK6/CyclinD3 (Homo sapiens (Human), UniProt Q00534) / CCC1(C)C(C)=Nc2c(F)cc(-c3nc(Nc4ccc(C5CCNCC5)cn4)ncc3F)cc21 (stereo not shown)
8.25

Query pIC50 on CDK6/CyclinD3 (Homo sapiens (Human), UniProt Q00534) for `CCN1CCN(Cc2ccc(Nc3ncc(F)c(-c4ccc5c(c4)C4(CCCC4)C(C)=N5)n3)nc2)CC1`
7.69

====

MEASUREMENT NOTES: Pharmacokinetic determination in mouse (LC/MS/MS of plasma)
Assay type: in vivo, ICR mice
CONDITION: male, ICR, mouse, plasma; mice, single intravenous administration, 2 mg/kg, Mean ± SD; read-out: Half life T1/2 (converted)
RESULT TYPE: half-life (h)
Answer in h, number only, no unit symbol.

Reported half-life for `CC1=Nc2c(F)cc(-c3nc(Nc4ccc(C5CCN(C)CC5)cn4)ncc3F)cc2C12CCCC2` : what is it?
9.1

====

MEASUREMENT NOTES: Rat pharmacokinetic determination (LC/MS/MS of plasma)
Assay type: in vivo, SD rats
CONDITION: male, rat, plasma; rats, single intravenous administration, 2 mg/kg, Mean ± SD; read-out: Clearance rate Cl
Consider the following molecules and their measured clearance readings.
Express it in mL/min/kg; write the number only.

# MOLECULE, clearance [mL/min/kg]
records = [
    ("CCN1CCN(Cc2ccc(Nc3ncc(F)c(-c4cc(F)c5nc(C)n(C(C)C)c5c4)n3)nc2)CC1 [LY2835219, reference compound]", 22.4),
]

Requested read-out: clearance. Entry: `CC1=Nc2c(F)cc(-c3nc(Nc4ccc(C5CCN(C)CC5)cn4)ncc3F)cc2C12CCCC2`
30

====

MEASUREMENT NOTES: Plasma and brain exposure levels after single intragastric administration
Assay type: in vivo, CD-1 mice
CONDITION: male, mouse, po; CD-1 mice, intragastric 10 mg/kg, plasma; read-out: Blood concentration Cmax, Plasma
RESULT TYPE: Cmax (ng/mL)
Enter your answer as a number in ng/mL; do not include the unit.

# COMPOUND, UOM, Cmax
records = [
    ("CC1=Nc2c(F)cc(-c3nc(Nc4ccc(C5CCN(C)CC5)cn4)ncc3F)cc2C12CCCC2 [Example 17]", "ng/mL", 639),
]

Now turn to the next compound.
What value of Cmax has been reported for the following compound? CCN1CCN(Cc2ccc(Nc3ncc(F)c(-c4cc(F)c5nc(C)n(C(C)C)c5c4)n3)nc2)CC1 [LY2835219, reference compound]
836

====

MEASUREMENT NOTES: Pharmacokinetic determination in mouse (LC/MS/MS of plasma)
Format: in vivo, ICR mice
CONDITION: male, ICR, mouse, plasma; mice, single intravenous administration, 2 mg/kg, Mean ± SD; read-out: Area under curve AUC0-t
RESULT TYPE: AUC(0-t) (µg·h/mL)
// note: answer is a bare numeric in µg·h/mL

# COMPOUND, RESULT TYPE, READING
rows = [
    ("CC1=Nc2c(F)cc(-c3nc(Nc4ccc(C5CCN(C)CC5)cn4)ncc3F)cc2C12CCCC2", "AUC(0-t)", 1.14),
]

Okay, next one:
Entry CCN1CCN(Cc2ccc(Nc3ncc(F)c(-c4cc(F)c5nc(C)n(C(C)C)c5c4)n3)nc2)CC1 [LY2835219, reference compound] has what AUC(0-t)?
0.674

====

MEASUREMENT NOTES: Pharmacokinetic determination in mouse (LC/MS/MS of plasma)
Format: in vivo, ICR mice
CONDITION: male, ICR, mouse, plasma, po; mice, single intragastric administration, 5 mg/kg, Mean ± SD; read-out: Half life T1/2 (converted)
RESULT TYPE: half-life (h)
Report only the number, with the unit h understood.

Look at this compound and give its reported half-life. CC1=Nc2c(F)cc(-c3nc(Nc4ccc(C5CCN(C)CC5)cn4)ncc3F)cc2C12CCCC2 [Example 17]
8.38

====

MEASUREMENT NOTES: Pharmacokinetic determination in mouse (LC/MS/MS of plasma)
Format: in vivo, ICR mice
CONDITION: male, ICR, mouse, plasma, po; mice, single intragastric administration, 5 mg/kg, Mean ± SD; read-out: Area under curve AUC0-∞
Protocol: Pharmacokinetic Determination of Representative Compounds of this Disclosure in Mouse […] Whole blood was anticoagulated with EDTA-K2 and centrifuged, the supernatant was removed, and the residue was frozen at −20° C. until sample analysis. […] Plasma samples were analyzed by LC-MS/MS, sample pretreatment was performed using protein precipitation method, the linear range of sample analysis was 1-2000 ng/ml, and the lowest quantification limit was 1 ng/ml.
RESULT TYPE: AUC(0-inf) (ng·h/mL)
Give the value in ng·h/mL but do not write ng·h/mL after it.

# COMPOUND, UOM, AUC(0-inf)
data = [
    ("CC1=Nc2c(F)cc(-c3nc(Nc4ccc(C5CCN(C)CC5)cn4)ncc3F)cc2C12CCCC2 [Example 17]", "ng·h/mL", 2500),
]

Consider the compound shown here: CCN1CCN(Cc2ccc(Nc3ncc(F)c(-c4cc(F)c5nc(C)n(C(C)C)c5c4)n3)nc2)CC1 [LY2835219, reference compound] What is its recorded AUC(0-inf)?
765

The measured values listed here are drawn from patent US11091476B2.
